Data origin, for the record: paper PMC6753226

# Experimental System: STING (Homo sapiens, UniProt Q86WV6, H232R)
# Construct: carboxy-terminal domain (STING^R232/CTD; CTD printed as residues 149–379)
# Sequence (Q86WV6 149-379 H232R): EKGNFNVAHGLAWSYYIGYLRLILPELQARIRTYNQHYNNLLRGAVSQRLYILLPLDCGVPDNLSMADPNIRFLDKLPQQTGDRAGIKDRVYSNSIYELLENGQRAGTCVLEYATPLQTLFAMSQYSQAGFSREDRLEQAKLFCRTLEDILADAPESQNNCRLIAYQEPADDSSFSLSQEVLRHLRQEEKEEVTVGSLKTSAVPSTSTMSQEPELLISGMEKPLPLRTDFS
# Test: isothermal titration calorimetry (ITC)
Readout Type: Kd (µM)
Report as a plain number; the unit µM is understood.

I have this compound here, `Nc1nc2c(ncn2[C@@H]2O[C@@H]3CO[P@](=O)(O)O[C@H]4[C@@H](O)[C@H](n5cnc6c(=O)[nH]c(N)nc65)O[C@@H]4CO[P@](=O)(O)O[C@H]3[C@H]2O)c(=O)[nH]1` , and I need its recorded Kd.
4.09
